Numbers sourced from patent US20250145606A1.

IC50 values, listed per item
target: PDGFRα (Homo sapiens (Human)); assay: Inhibition of PDGFRα kinase activity (HTRF KinEASE-TK); details: biochemical, HTRF KinEASE-TK
Sequence (P16234 24-1089): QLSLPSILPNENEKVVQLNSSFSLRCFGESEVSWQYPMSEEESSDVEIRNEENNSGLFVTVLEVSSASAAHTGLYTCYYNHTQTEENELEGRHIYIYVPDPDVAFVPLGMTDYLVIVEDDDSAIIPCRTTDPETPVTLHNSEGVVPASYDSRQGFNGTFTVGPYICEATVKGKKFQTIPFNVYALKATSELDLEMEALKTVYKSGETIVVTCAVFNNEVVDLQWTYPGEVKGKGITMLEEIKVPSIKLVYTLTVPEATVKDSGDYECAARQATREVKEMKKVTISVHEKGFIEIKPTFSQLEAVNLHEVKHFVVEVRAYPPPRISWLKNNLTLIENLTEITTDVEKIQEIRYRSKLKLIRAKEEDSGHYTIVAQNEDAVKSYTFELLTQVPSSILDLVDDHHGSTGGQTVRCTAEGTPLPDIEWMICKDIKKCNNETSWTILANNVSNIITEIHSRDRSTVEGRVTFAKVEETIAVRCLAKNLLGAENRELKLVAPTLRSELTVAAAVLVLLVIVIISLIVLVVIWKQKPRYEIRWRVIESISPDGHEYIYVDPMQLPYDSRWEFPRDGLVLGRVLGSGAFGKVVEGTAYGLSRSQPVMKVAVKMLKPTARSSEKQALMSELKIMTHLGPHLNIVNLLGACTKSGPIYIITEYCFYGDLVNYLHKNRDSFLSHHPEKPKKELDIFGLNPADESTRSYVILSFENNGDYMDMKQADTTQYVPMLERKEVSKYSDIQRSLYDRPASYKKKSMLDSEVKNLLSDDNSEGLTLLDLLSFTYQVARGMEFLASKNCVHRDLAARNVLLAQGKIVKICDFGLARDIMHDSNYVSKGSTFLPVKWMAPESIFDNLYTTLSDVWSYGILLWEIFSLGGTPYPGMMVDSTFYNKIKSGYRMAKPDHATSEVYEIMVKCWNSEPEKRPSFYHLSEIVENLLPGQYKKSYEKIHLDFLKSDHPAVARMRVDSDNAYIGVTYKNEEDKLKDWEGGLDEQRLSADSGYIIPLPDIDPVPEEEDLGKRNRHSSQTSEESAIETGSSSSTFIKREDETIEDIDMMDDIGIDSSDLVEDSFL
ENDPOINT_LABEL: IC50

INSERT INTO assay_data (compound, result) VALUES
  ('Cc1cc(F)c(C(=O)Nc2cc(C3CC3)[nH]n2)cc1NC(=O)c1cnc(N)s1', '0.1 to 1 µM'),
  ('CC(C)Oc1ccc(NC(=O)c2cc(NC(=O)c3cnc(N)s3)c(Cl)cc2F)nc1', '> 1 µM'),
  ('Cc1cc(F)c(C(=O)NCCc2ccc(F)cc2)cc1NC(=O)c1cnc(N)s1', '0.1 to 1 µM'),
  ('Cc1cc(F)c(C(=O)Nc2ccc3c(c2)C(C)(C)C(=O)N3)cc1NC(=O)c1cnc(N)s1', '< 0.1 µM'),
  ('Cc1ncc(C(=O)Nc2cc(C(=O)Nc3ccc(COC(F)F)cn3)c(F)cc2C)s1', '> 1 µM'),
  ('Cc1ncc(C(=O)Nc2cc(C(=O)N[C@@H]3C[C@H]3c3ccccc3)c(F)cc2C)s1', '> 1 µM'),
  ('Cc1ncc(C(=O)Nc2cc(C(=O)Nc3ccc(C(C)(F)F)cn3)c(F)cc2C)s1', '> 1 µM'),
  ('Cc1cc(F)c(C(=O)Nc2ccc(C(C)(O)C(F)(F)F)cn2)cc1NC(=O)c1cnc(N)s1 (centres unmarked)', '< 0.1 µM');
